# MEASURED ON: MMP-9 (Homo sapiens)
# Construct: from tissue; host or cells: human polymorphonuclear leukocytes (PMN) from whole blood (New York Blood Center), PMA-stimulated supernatant
# Sequence (P14780 107-707 limits assumed): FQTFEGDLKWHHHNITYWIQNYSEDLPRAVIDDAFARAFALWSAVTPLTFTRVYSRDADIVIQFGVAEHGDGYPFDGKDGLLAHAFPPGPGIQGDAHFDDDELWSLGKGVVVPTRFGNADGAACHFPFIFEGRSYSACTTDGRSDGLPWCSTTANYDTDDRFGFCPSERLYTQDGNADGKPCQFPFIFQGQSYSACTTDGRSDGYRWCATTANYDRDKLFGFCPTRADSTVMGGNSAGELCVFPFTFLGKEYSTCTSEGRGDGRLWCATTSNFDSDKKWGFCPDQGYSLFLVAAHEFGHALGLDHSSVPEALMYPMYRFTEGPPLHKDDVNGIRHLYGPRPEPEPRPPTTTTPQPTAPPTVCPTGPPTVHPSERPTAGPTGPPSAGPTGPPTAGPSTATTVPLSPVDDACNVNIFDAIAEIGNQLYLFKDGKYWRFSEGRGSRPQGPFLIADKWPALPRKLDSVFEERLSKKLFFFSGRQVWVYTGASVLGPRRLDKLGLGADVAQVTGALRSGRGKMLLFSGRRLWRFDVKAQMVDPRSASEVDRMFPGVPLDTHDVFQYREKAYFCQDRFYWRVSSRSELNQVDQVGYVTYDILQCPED
# PROTOCOL TEXT: Thiopeptilide MMP-9 Inhibition Assay
# Format: biochemical
# CONDITION DESCRIPTION: at 5 μM; read-out: MMP-9: Thiopep. % inhibition
Param threshold (4%) applies to inhibition at 5 µM; output Y when value >= threshold, N when value < threshold.

Example results:
{"COMPOUND": "O=C(O)c1ccccc1C(=O)c1ccc(-c2ccc(Cl)cc2)cc1 [Example 287]", "CLASS": "N"}
{"COMPOUND": "CCCCCCCOc1ccc(-c2ccc(C(=O)CC(CCCc3ccccc3)C(=O)O)cc2)cc1 (centres unmarked) [Example 92]", "CLASS": "Y"}

Could you verify whether the entry CCCCCCOc1ccc(-c2ccc(C(=O)CC(CCCc3ccccc3)C(=O)O)cc2)cc1 (centres unmarked) [Example 88] shows inhibition at 5 µM of no less than 4%?
Y

Could you verify whether the entry O=C(O)[C@@H]1C[C@H]1C(=O)c1ccc(-c2ccc(Cl)cc2)cc1 (relative stereo) [Example 293, reference compound] shows inhibition at 5 µM of no less than 4%?
N

Could you verify whether the entry O=C(O)CCCC(=O)c1ccc(-c2ccc(Cl)cc2)cc1 [Example 333, reference compound] shows inhibition at 5 µM of no less than 4%?
Y

Could you verify whether the entry O=C(O)CCC(=O)c1ccc(-c2ccc(Cl)cc2)cc1 [Example 6, reference compound] shows inhibition at 5 µM of no less than 4%?
Y

Could you verify whether the entry CCCCCOc1ccc(-c2ccc(C(=O)CC(CCCc3ccccc3)C(=O)O)cc2)cc1 (centres unmarked) [Example 85] shows inhibition at 5 µM of no less than 4%?
Y

* * *

# MEASURED ON: MMP-3 (Homo sapiens)
# Construct: Truncated Prostromelysin-257 was expressed in a soluble form in E.coli; made in house; host or cells: E. coli
# Sequence (P08254 100-274 limits assumed): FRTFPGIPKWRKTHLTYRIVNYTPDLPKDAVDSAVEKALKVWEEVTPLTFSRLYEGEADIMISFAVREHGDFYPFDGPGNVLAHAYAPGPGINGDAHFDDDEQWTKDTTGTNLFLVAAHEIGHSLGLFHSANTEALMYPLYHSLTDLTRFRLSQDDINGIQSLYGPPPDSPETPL
# PROTOCOL TEXT: Primary Thiopeptilide MMP-3 Inhibition Assay
# Format: biochemical
# CONDITION DESCRIPTION: at 5 μM; read-out: MMP-3 Thiopep. % inhibition
MEASUREMENT LABEL: inhibition at 5 µM (%)
Quick note: give the figure in %, leave out the unit.

Example molecules with recorded inhibition at 5 µM:
{"MOLECULE": "O=C(O)CCC(=O)c1ccc(-c2ccccc2F)cc1 [Example 9, reference compound]", "MEASURED ON": "MMP-3 (Homo sapiens)", "UNIT ABBREVIATION": "%", "NUMERIC RESULT": 0}
{"MOLECULE": "CC(C)CC(CC(=O)O)C(=O)c1ccc(-c2ccc(Cl)cc2)cc1 (single isomer, unassigned) [Example 5]", "MEASURED ON": "MMP-3 (Homo sapiens)", "UNIT ABBREVIATION": "%", "NUMERIC RESULT": 11}

Specify the recorded inhibition at 5 µM for O=C(O)CCCC(=O)c1ccc(-c2ccc(Cl)cc2)cc1 [Example 333, reference compound] , system: MMP-3 (Homo sapiens).
62

Specify the recorded inhibition at 5 µM for CC(C)(C)C(=O)SCC(CC(=O)c1ccc(-c2ccc(Cl)cc2)cc1)C(=O)O (single isomer, unassigned) [Example 195] , system: MMP-3 (Homo sapiens).
31

Specify the recorded inhibition at 5 µM for CC(C)CC(CC(=O)c1ccc(-c2ccccc2F)cc1)C(=O)O (centres unmarked) [Example 17] , system: MMP-3 (Homo sapiens).
35

Specify the recorded inhibition at 5 µM for C=C(CC(=O)c1ccc(C)cc1)C(=O)O [Example 28, reference compound] , system: MMP-3 (Homo sapiens).
14

Specify the recorded inhibition at 5 µM for O=C(C[C@@H](CCCc1ccccc1)C(=O)O)c1ccc(-c2ccc(Cl)cc2)cc1 [Example 115] , system: MMP-3 (Homo sapiens).
39

Specify the recorded inhibition at 5 µM for NCc1ccc(-c2ccc(C(=O)CC(CCCc3ccccc3)C(=O)O)cc2)cc1 (centres unmarked) [Example 59] , system: MMP-3 (Homo sapiens).
33
